compounds and their reported growth inhibition
- assay_notes: NCI Yeast Anticancer Drug Screen. Data for the bub3 strain (AID 167)
- experimental_conditions: S. cerevisiae bub3 mutant strain, at 50.0 µM (retest, dose inferred, filed as 5.0), hits give high values
This is part of a sample that, as a whole, favours compounds with a hit. Of some 79,000 tested, about 15% had one in any assay.
Field: numeric (%). Do not append units.

Recorded growth inhibition, per entry:
[
  {
    "compound": "Cc1ccc(C(O)CCN2CCOCC2)c(C)c1 (configuration not stated)",
    "growth inhibition (%)": 82
  },
  {
    "compound": "Fc1ccc(NC(=S)SCc2ccco2)cc1",
    "growth inhibition (%)": 34
  },
  {
    "compound": "COC(=O)C1(C)CCCC2(C)C3CC(=O)C(C(C)C)=CC3(O)CCC12 (configuration not stated)",
    "growth inhibition (%)": 2
  },
  {
    "compound": "C/C(=N\\NC(=S)N1CCN(c2cnccn2)CC1)c1ccccn1",
    "growth inhibition (%)": 99
  },
  {
    "compound": "N#[N+]c1c([O-])ccc2nc3ccccc3nc12",
    "growth inhibition (%)": -69
  }
]

Requested field: growth inhibition. Item: "CCCCCCSc1nc2ccc(N=Cc3ccccc3O)cc2s1"
86

Report growth inhibition for "c1ccc(N=Nc2ccc3ccccc3c2)cc1" please.
17

# lookup: growth inhibition of "O=C(C(/C=N\C(=S)Nc1ccccc1Cl)=C(/O)c1ccccc1)c1ccccc1"
99

For "Cc1ccc(S(=O)(=O)Nc2ccccc2SSc2ccccc2NS(=O)(=O)c2ccc(C)cc2)cc1" , what is its reported growth inhibition?
74

# query: growth inhibition of entry "O=[N+]([O-])c1cccc(F)c1O"
73

Reported growth inhibition for "N=C1C=CC(=C(c2ccc(N)cc2)c2ccc(N)cc2)C=C1" : what is it?
98

// growth inhibition lookup, key: "O=C1C=C(Cl)C(=O)C(Cl)=C1Cl"
99

---

- assay_notes: NCI Yeast Anticancer Drug Screen. Data for the rad50 strain (AID 155);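 further: 0% = growth of vehicle-only cultures of the same strain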
- experimental_conditions: S. cerevisiae rad50 strain growth inhibition; at 5.0 µM (retest, dose inferred, filed as 0.5); hits give high values
This is part of a sample that, as a whole, favours compounds with a hit. Of some 79,000 tested, about 15% had one in any assay.
metric_name: growth inhibition (%)
Please give a number only; it is taken to be in %.

[
  {
    "molecule": "CC1(CCC(=O)O)c2ccc3ccccc3c2Oc2c1ccc1ccccc21",
    "growth inhibition / %": 79
  },
  {
    "molecule": "O=C(NNc1ccccc1)C(O)C(=O)C(O)C(O)C(O)CO (stereo not given)",
    "growth inhibition / %": 1
  },
  {
    "molecule": "COc1ccc(OC)c(/C=C2/C(=O)ON=C2C)c1",
    "growth inhibition / %": -14
  },
  {
    "molecule": "OCN(CO)c1ccc2c(c1)Cc1cc(F)ccc1-2",
    "growth inhibition / %": 34
  }
]

Look at this molecule and give its reported growth inhibition. "C[CH2][Sn]([CH2]C)([O]C(=O)c1ccccc1OC)[O][Sn]([CH2]C)([CH2]C)[O]C(=O)c1ccccc1OC"
36

---

- assay_notes: NCI Yeast Anticancer Drug Screen. Data for the cln2 rad14 strain (AID 165);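 further: 0% = growth equal to vehicle treated cultures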
- experimental_conditions: S. cerevisiae cln2 rad14 strain, at 50.0 µM (retest, dose inferred, filed as 5.0), hits give high values
About 79,000 compounds went through this panel and 15% of them were active in at least one assay; those are over-represented in the sample as a whole.
Decision: growth inhibition >= 70% yields true, all other cases yield false.

Worked examples follow.
[
  {
    "molecule": "C[N+](C)([O-])CCC=C1c2ccccc2CCc2ccccc21",
    "classification": "false"
  },
  {
    "molecule": "COc1cc(/C=C/C(=N\\NC(=O)c2ccccc2)c2sc(Nc3ccc(Cl)c(Cl)c3)nc2C)ccc1O",
    "classification": "false"
  },
  {
    "molecule": "N#CC(O)C(Br)(Br)Br (stereo unspecified)",
    "classification": "false"
  },
  {
    "molecule": "c1ccc(N=C2SC3=NCCN3C2=Nc2ccccc2)cc1",
    "classification": "false"
  },
  {
    "molecule": "COc1cccc2c1C(=O)c1c(O)c3c(c(O)c1C2=O)C[C@@](O)(C(O)CO)C[C@@H]3OC1CC(N(Cc2ccccc2)Cc2ccccc2)C(O)C(C)O1 (stereo partly specified)",
    "classification": "true"
  }
]

Hello, I need to know if "COc1ccc2c(c1)nc1cc(Cl)ccc1[n+]2C" has measured growth inhibition not below 70%. Thanks!
true

In plain terms: is recorded growth inhibition at least 70% for "COc1cc2c(c(OC)c1OC)-c1ccc(=O)c(OC)cc1[C@@H](N)CC2" ?
false

Kindly determine if growth inhibition recorded for "O=C(NC1CCN(Cc2ccccc2)CC1)c1ccccc1I" is above or exactly 70%.
true

---

- assay_notes: NCI Yeast Anticancer Drug Screen. Data for the mec2-1 strain (AID 157)
- experimental_conditions: S. cerevisiae mec2-1 strain, at 50.0 µM (retest, dose inferred, filed as 5.0), hits give high values
This is part of a sample that, as a whole, favours compounds with a hit. Of some 79,000 tested, about 15% had one in any assay.
metric_name: growth inhibition (%)
Provide the reading as a plain figure in %.

Worked cases, growth inhibition given:
[
  {
    "compound": "COC(=O)Cc1cn[nH]c1C(=O)OC",
    "metric_name": "growth inhibition",
    "measured_value": -45
  },
  {
    "compound": "CC/C(=C(/CC)c1ccc([O-])cc1)c1ccc([O-])cc1.CC/C(=C(\\CC)c1ccc([O-])cc1)c1ccc([O-])cc1.O=C([CH-]C(=O)c1ccccc1)c1ccccc1.O=C([CH-]C(=O)c1ccccc1)c1ccccc1.O=C([CH-]C(=O)c1ccccc1)c1ccccc1.O=C([CH-]C(=O)c1ccccc1)c1ccccc1.[Ti+4].[Ti+4]",
    "metric_name": "growth inhibition",
    "measured_value": 97
  },
  {
    "compound": "Nc1ccc2c(SCCCCCCCCSc3c4ccccc4nc4cc(N)ccc34)c3ccccc3nc2c1",
    "metric_name": "growth inhibition",
    "measured_value": 67
  },
  {
    "compound": "O=C1NC(c2ccccc2)(c2cccs2)C(=O)N1C1c2ccccc2Oc2ccccc21 (stereo not given)",
    "metric_name": "growth inhibition",
    "measured_value": 92
  },
  {
    "compound": "c1ccc(Nc2nnc3nc(-c4ccccc4)c(-c4ccccc4)nn23)cc1",
    "metric_name": "growth inhibition",
    "measured_value": 82
  },
  {
    "compound": "Nc1nnc(CCC(=O)Nc2ccccc2Cl)o1",
    "metric_name": "growth inhibition",
    "measured_value": 4
  },
  {
    "compound": "CC(NNC(=S)N1CCCCCC1)c1cccnn1 (stereo not given)",
    "metric_name": "growth inhibition",
    "measured_value": 99
  },
  {
    "compound": "O=C(OCc1ccccc1)N(CCCCN(CCCNCc1ccccc1)C(=O)OCc1ccccc1)CCCNCc1ccccc1",
    "metric_name": "growth inhibition",
    "measured_value": 100
  }
]

I am curious: what growth inhibition value has been reported for "Oc1ccc(-c2nnc(-c3ccccc3)nn2)cc1" ?
-53

# growth inhibition lookup, item "CN(C)c1ccc(SC(=S)NCc2ccccc2)cc1"
92

---

Items are presented alongside their recorded growth inhibition.
- assay_notes: NCI Yeast Anticancer Drug Screen. Data for the sgs1 mgt1 strain (AID 161);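 further: 0% = growth of cultures given vehicle only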
- experimental_conditions: S. cerevisiae sgs1 mgt1 strain, at 5.0 µM (retest, dose inferred, filed as 0.5), hits give high values
About 79,000 compounds went through this panel and 15% of them were active in at least one assay; those are over-represented in the sample as a whole. The source made the active and inactive calls. Cut-off read from the data, not from the text of the source: active = growth inhibition above about 70%; inactive = the rest.

[
  {
    "molecule": "CSC(=S)SC(SC)S(C)(=O)=O (stereo not given)",
    "growth inhibition": "-5% (inactive)"
  }
]

Returns the measured growth inhibition for the input molecule. Input: OC(c1cc(-c2ccc(Cl)c(Cl)c2)nc2ccccc12)C1CCCCN1 (stereo not given)
84% (active)

Quick one: growth inhibition of Cc1cc(Cl)ccc1NC(=O)CC1SC(=NC(=O)c2ccccc2Cl)NC1=O (stereo not given) ?
96% (active)

---

- assay_notes: NCI Yeast Anticancer Drug Screen. Data for the bub3 strain (AID 167)
- experimental_conditions: S. cerevisiae bub3 mutant strain, at 50.0 µM, hits give high values
- Method: Growth inhibition of yeast strains with defined genetic alterations is measured as a screen for potential anti-cancer activity. Selected strains with alterations in DNA damage repair or cell cycle control were exposed to compounds and growth inhibition was measured relative to vehicle treated controls. The strain used in this assay is bub3
About 79,000 compounds went through this panel and 15% of them were active in at least one assay; those are over-represented in the sample as a whole.
metric_name: growth inhibition (%)
State the answer as a number, implicitly in %.

[
  {
    "compound": "CCOP(=O)(OCC)/C(C#N)=C/c1ccc(Oc2ccccc2)cc1",
    "growth inhibition [%]": 90.5
  },
  {
    "compound": "Oc1c(Cl)c(Cl)c(O)c2c1CCCC2",
    "growth inhibition [%]": 99.5
  },
  {
    "compound": "N#Cc1c(-c2ccc(Cl)c(Cl)c2)c(-c2ccc(Cl)c(Cl)c2)nn(CCO)c1=O",
    "growth inhibition [%]": 96.3
  },
  {
    "compound": "FC(F)(F)c1ccc(NC(=S)SCc2ccc(Cl)cc2)cc1",
    "growth inhibition [%]": 99.5
  },
  {
    "compound": "Oc1cc2c(cc1C(Nc1ncccn1)c1ccc(F)cc1)OCO2 (centres undefined)",
    "growth inhibition [%]": 44.1
  },
  {
    "compound": "Nc1ccc2c(c1)S(=O)(=O)c1cc(N)ccc1-2",
    "growth inhibition [%]": -17.8
  },
  {
    "compound": "CCc1cccc(CC)c1NC(=O)C(C#N)C1=C(Cl)C(=O)c2ccccc2C1=O (centres undefined)",
    "growth inhibition [%]": 92.1
  },
  {
    "compound": "CN(C)C1=NC(N(C)C)=C2C=CC=C12",
    "growth inhibition [%]": 82.2
  },
  {
    "compound": "O=C1/C(=C/c2cccc([N+](=O)[O-])c2)Sc2scc(-c3ccc([N+](=O)[O-])cc3)[n+]21",
    "growth inhibition [%]": 93.1
  },
  {
    "compound": "Cc1c2cc[n+](C)cc2c(COC2OC(CO)C(O)C2O)c2c3ccccc3n(C)c12 (centres undefined)",
    "growth inhibition [%]": 28.1
  }
]

Now for the compound whose growth inhibition we want.
Data request, read-out growth inhibition, for "OCc1c(-c2cccc3ccccc23)sc(-c2cccc3ccccc23)c1CO"
86.5
